B1: TPR t1 (parent)
chain: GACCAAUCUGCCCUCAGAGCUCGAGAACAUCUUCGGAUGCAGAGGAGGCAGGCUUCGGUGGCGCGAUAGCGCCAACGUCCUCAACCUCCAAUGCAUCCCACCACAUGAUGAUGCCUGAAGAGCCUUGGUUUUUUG

# Variants of: B1
# ASSAY METHOD TEXT: polymerase ribozyme fitness, log enrichment relative to wild type (log ratio); higher = more active; in vitro selection for triplet polymerase activity
Exercise: state measured polymerase ribozyme fitness (log ratio) for each of the variants provided.
Answers are plain numbers.

Example cases with answers are listed next.
INSERT INTO results (mut, parameter, val) VALUES
  ('G42U U78C C94G A100C', 'polymerase ribozyme fitness (log ratio)', -4.78),
  ('C4U A90G', 'polymerase ribozyme fitness (log ratio)', -0.325),
  ('C28G A83G', 'polymerase ribozyme fitness (log ratio)', -3.41),
  ('U9G C15A C70G A111U G117C', 'polymerase ribozyme fitness (log ratio)', -5.91),
  ('U7A C85U U125G', 'polymerase ribozyme fitness (log ratio)', -1.31);

For every item in the list below, what is its measured polymerase ribozyme fitness (log ratio)?
1. A100C
2. A6U G60C G120U
3. G10A C20U G57U G113U
4. C40A G135U
5. C4G C13G
6. A24G C49G A121C
7. C12U G120C

1. -0.919
2. 0.248
3. -2.28
4. -2.63
5. -3.83
6. -0.875
7. 2

Please state polymerase ribozyme fitness (log ratio) for every variant in the list that follows.
1. C53U C79A C85U C88U
2. C72U C99U
3. C88A U133A
4. A46U C94G C98U
5. A16G A74U

[-2.08, -3.71, 0.0129, -4.76, -1.36]

Could you report polymerase ribozyme fitness (log ratio) for every entry in the following list?
1. A27G C49G G63U C89G G117C
2. G45A A84C
3. C8U A24G G44U U106C

1: -7.01; 2: -0.717; 3: -1.81

I'm hoping you can list polymerase ribozyme fitness (log ratio) for every variant here, please.
1. A41G G63A A75G C85A U133A
2. G45C U87C

1. -3.04
2. -0.513
